Provide the recorded growth inhibition for the entries that follow.
- Protocol: NCI Yeast Anticancer Drug Screen. Data for the bub3 strain (AID 167)
- Conditions: S. cerevisiae bub3 mutant strain, at 50.0 µM, hits give high values
The panel holds about 79,000 compounds, 15% with a hit somewhere; the sample as a whole holds those more often.
Use % as the unit, but write only the number.

Lookup: Look up growth inhibition: `c1ccc2c(c1)ccc1ccc3ocnc3c12`
Found: 9.15

Lookup: Look up growth inhibition: CC(C)=CCN1c2ccccc2NC(=O)CC1C (configuration not stated)
Found: -10.9

Lookup: Look up growth inhibition: C=CCOc1ccc(C2C(C(=O)OC)C(=O)CC(O)(c3ccccc3)C2C(=O)OC)cc1OC (configuration not stated)
Found: -0.9

Lookup: Look up growth inhibition: `O=C(N/N=C/c1c(O)ccc2ccccc12)c1ccccc1`
Found: 16.1

Lookup: Look up growth inhibition: `CNC(=S)c1ccc(Cl)cc1`
Found: -2.05

Lookup: Look up growth inhibition: `O=[N+]([O-])c1ccc(/C=C/c2cc(N(CCO)CCO)c3ccccc3n2)cc1`
Found: -0.4

Lookup: Look up growth inhibition: O=C(O)c1ccc(C2C3C=CC(C3)C2[N+](=O)[O-])cc1 (configuration not stated)
Found: -12.5

Lookup: Look up growth inhibition: CC(Br)C(=O)NCC(=O)NCC(=O)O (configuration not stated)
Found: 16.9

Lookup: Look up growth inhibition: `O=S(=O)(c1ccc(Cl)cc1)c1ccccc1C1=NCCN1`
Found: -43.8

Lookup: Look up growth inhibition: CN1c2ccccc2C2=C(c3ccccc3)CC[C@@H](C(=O)N3C4CC5CC[C@@]4(CS3(=O)=O)C5(C)C)[C@@H]21 (some centres not stated)
Found: -8.85

Lookup: Look up growth inhibition: `CCOC(=O)c1nnc(-c2ccccc2)nc1Cl`
Found: 3.7

Lookup: Look up growth inhibition: `CCCCc1ccccn1`
Found: 7.4
